Test system: SK-MEL-2 melanoma
Measurement Description: NCI-60 one-dose screen, 48 h
Condition Set: 10 µM unless noted
Compounds without any hit were thinned out: in the full panel of roughly 83,000, 20% have a hit. Active and inactive are the calls of the source. Rule for the calls: active = growth percent below 10; inactive = the rest.
Pick from y for active, n for inactive when you respond.

1) COc1ccc(-c2cc(-c3c(C)oc4cc5occc5c(OC)c4c3=O)nc(N)c2C#N)cc1OC
n
2) COc1ccc(C2c3ccccc3NC(=O)N2C2CCN(C)CC2)c(OC)c1 (stereo not given)
n
3) Nc1ccccc1NC(=O)c1ccc(CN2CCC/C(=C\c3ccccn3)C2=O)cc1
n
4) CC(Cc1ccco1)C(=O)NC(N)=O (stereo not given)
n
5) COc1cccc(-c2nn(-c3ccccc3)cc2-c2ccnc(NCCCNS(=O)(=O)c3ccccc3)c2)c1
n
6) O=c1c(CNc2ccc(S(=O)(=O)Nc3nccs3)cc2)coc2ccccc12
n
7) CC(c1ccccc1)N1C(=O)C(C2SC(=S)N(C(C)c3ccccc3)C2=O)SC1=S (stereo not given)
n
8) COC(=O)[C@]12CC[C@@H](C(/C=C/c3cccnc3)=N/O)[C@@H]1[C@H]1CC[C@@H]3[C@@]4(C)CC(=C/c5cccnc5)/C(=N/O)C(C)(C)[C@@H]4CC[C@@]3(C)[C@]1(C)CC2
n

# outcome recorded in this test, key = COc1ccc2c(c1)c(-c1nc(-c3cn(C)c4ncccc34)cs1)cn2CCN
n

# outcome recorded in this test, key = COc1ccccc1CNc1nc(N)nc2[nH]c3ccc(O)cc3c12
n

# outcome recorded in this test, key = Cc1nn2c(-c3nc4cc(Cl)c(Cl)cc4[nH]3)c(-c3ccc(F)cc3)nc2s1
n

# outcome recorded in this test, key = COc1ccc(C2C(C#N)=C(N)Oc3c2sc2c(F)cccc32)cc1 (stereo not given)
n

* * *

Listed molecules paired with reported growth
Test system: NCI-H23 lung
Measurement Description: NCI-60 one-dose screen, 48 h (100 = growth as untreated, 0 = no growth, -100 = all killed)
Condition Set: 10 µM unless noted
Compounds without any hit were thinned out: in the full panel of roughly 83,000, 20% have a hit.
Please give a number only; it is taken to be in %.

Worked examples follow.
1. CC1c2ccccc2N(S(=O)(=O)c2ccccc2)C1C (configuration not stated)
89.4
2. COc1ccc(NC(=O)c2ccc3c(c2)nc(-c2cc4ccccc4[nH]c2=O)n3-c2cc(C(C)(C)C)[nH]n2)cc1
90.4
3. COc1ccc(-c2cc(-c3cccs3)n(N=O)c(=O)c2C#N)cc1
89.1
4. C=C(C)[C@@H]1CC[C@]2(CN)CC[C@]3(C)[C@H](CC[C@@H]4[C@@](C)(CCCN)[C@H](C(=C)C)CC[C@]43C)[C@@H]12
91.1
5. O=C(O[C@@H]1Cc2c(O)cc(O)cc2O[C@@H]1c1cc(O)c(O)c(O)c1)c1cc(O)c2c(c1)OCO2
92.6
6. CN(CSc1ccc(Cl)cc1)c1ccc(CSc2ccc(Cl)cc2)cc1
90.6

Please find the next molecule below.
Name the recorded growth for N#C/C(=C\c1ccc(-c2cccc(C(F)(F)F)c2)o1)c1nc(-c2ccco2)cs1 .
91.8

* * *

System: M14 melanoma
Measurement Description: NCI-60 one-dose screen, 48 h
Condition Set: 10 µM unless noted
This is part of a sample that, as a whole, favours compounds with a hit. Of some 83,000 tested, about 20% had one in any assay. Active and inactive are the calls of the source. How the source made its calls: active means growth percent below 10; inactive means the rest.
Pick from active, inactive when you respond.

Worked examples follow.
1) COC(=O)CCCCCn1c2ccccc2c2c3c(c4c5ccccc5[nH]c4c21)C(=O)N(O)C3=O
inactive
2) Cc1cc(N2CCCCC2)nc(N(CCCNc2ccnc3cc(Cl)ccc23)Cc2ccco2)n1
active
3) CC(=O)O[C@H]1CC[C@@]2(C)[C@@H](CC[C@@H]3[C@@H]2CC(=O)[C@@]2(C)[C@H]3C[C@@H](C3CCCC3=O)[C@@H]2C(C)=O)C1 (stereo not given in full)
inactive
4) COC(=O)[C@]12CC[C@@H](C(/C=C/c3cccnc3)=N/O)[C@@H]1[C@H]1CC[C@@H]3[C@@]4(C)CC(=C/c5cccnc5)/C(=N/O)C(C)(C)[C@@H]4CC[C@@]3(C)[C@]1(C)CC2
inactive
5) Cn1cc(-c2csc(-c3cn(CCCN4CCCCC4)c4ccc(F)cc34)n2)c2cccnc21
active

# outcome recorded in this test, key = CC[C@H](CC[C@@H](C)[C@H]1CC[C@H]2[C@@H]3/C(=C/c4cccnc4)C(=O)C4=CC(=O)CC[C@]4(C)[C@H]3CC[C@]12C)C(C)C
inactive

# outcome recorded in this test, key = O=[N+]([O-])c1ccc(/C=N\Nc2ccccc2)cc1
inactive

# outcome recorded in this test, key = Cc1csc(Nc2nc(-c3ccc(Cl)cc3)nc(C(Cl)(Cl)Cl)n2)n1
inactive

# outcome recorded in this test, key = CN(C)CCCCC(C(=O)CBr)(c1ccccc1)c1ccccc1
inactive

# outcome recorded in this test, key = NC1=NN(c2ccccc2)C(=O)/C1=C/c1ccc(Cl)cc1
inactive

* * *

System: U251 CNS
Measurement Description: NCI-60 one-dose screen, 48 h (100 = growth as untreated, 0 = no growth, -100 = all killed)
Condition Set: 10 µM unless noted
Compounds without any hit were thinned out: in the full panel of roughly 83,000, 20% have a hit.
Listed molecules paired with reported growth
Please give a number only; it is taken to be in %.

1. COc1ccc2c(c1)c(-c1nc(-c3c[nH]c4ncccc34)cs1)cn2CCNC(=O)OC(C)(C)C
69.1

Name the recorded growth for CC(C)(C)c1nc(-c2ccc(O)c(O)c2)cs1 .
46.9

Name the recorded growth for c1cc(N2CCCC2)c2nc(-c3[nH]ncc3Nc3ncnc4[nH]ccc34)[nH]c2c1 .
3

Name the recorded growth for O=C1C(Cl)=C(Nc2ccc(S(=O)(=O)c3ccc(NC4=C(Cl)C(=O)c5ccccc5C4=O)cc3)cc2)C(=O)c2ccccc21 .
5.68

Name the recorded growth for CCN(CC)CCCCCCNc1ccnc2cc(Cl)ccc12 .
85.3

Name the recorded growth for CCCC1CCCCN1C(=O)OCC(C)C (stereo not given) .
103

Name the recorded growth for Cc1csc(Nc2nc(-c3ccc(Cl)cc3)nc(C(Cl)(Cl)Cl)n2)n1 .
72.8

Name the recorded growth for COc1cc2[nH]c(C(=O)c3cc(OC)c(OC)c(OC)c3)c(N)c2cc1C#CCO .
22.8

Name the recorded growth for CC(=O)Oc1ccccc1C(=O)/C=C/c1cccc([N+](=O)[O-])c1 .
54.3

Name the recorded growth for C=C(C)[C@@H]1CC[C@]2(CN)CC[C@]3(C)[C@H](CC[C@@H]4[C@@](C)(CCCN)[C@H](C(=C)C)CC[C@]43C)[C@@H]12 .
74

* * *

Tested on: NCI-H226 lung
Measurement Description: NCI-60 one-dose screen, 48 h (100 = growth as untreated, 0 = no growth, -100 = all killed)
Condition Set: 10 µM unless noted
Compounds without any hit were thinned out: in the full panel of roughly 83,000, 20% have a hit.
Reported Endpoint: growth (%)
Please give a number only; it is taken to be in %.

1) NC(Cc1ccc(O)cc1)C(=O)N/N=C/c1ccccc1O (stereo unspecified)
103
2) O=C(CI)Nc1ccc(O)c2ccccc12
-13.1
3) Cn1c(=O)c2c(nc(Br)n2CC(=O)Nc2ccc(F)cc2)n(C)c1=O
103

Name the recorded growth for COc1cc(-c2cc(-c3nc4cc(Cl)c(Cl)cc4[nH]3)[nH]n2)cc(OC)c1OC .
38

* * *

Listed molecules paired with reported growth
Tested on: UO-31 renal
Measurement Description: NCI-60 one-dose screen, 48 h (100 = growth as untreated, 0 = no growth, -100 = all killed)
Condition Set: 10 µM unless noted
About 83,000 compounds went through this panel and 20% of them were active in at least one assay; those are over-represented in the sample as a whole.
Please give a number only; it is taken to be in %.

Worked examples follow.
1. NC(N)=N/N=C/c1ccc(-c2ccc(-c3ccc(Cl)cn3)s2)cc1
78
2. Nc1c(C(=O)Nc2c(Cl)cccc2Cl)sc2nc3c(cc12)CCCC3
84.3
3. c1ccc(CN2C(c3ccccc3)=Nc3ccccc3C2c2c[nH]c3ccccc23)cc1 (stereo unspecified)
24.5

Name the recorded growth for CCCCCCCN(CCCCCCC)C(=N)c1ccnc2ccccc12 .
-62.5

Name the recorded growth for O=S(=O)(NCCNc1cc(-c2cn(-c3ccccc3)nc2-c2cccc(O)c2)ccn1)c1ccc(C(F)(F)F)cc1 .
-39.8

Name the recorded growth for O=C1/C(=C\c2ccc(Br)o2)SC(=S)N1CCc1ccc(O)cc1 .
-48.4

Name the recorded growth for Cc1cc(Nc2ccc(F)cc2)nc(N2CCN(c3ccnc4cc(Cl)ccc34)CC2)n1 .
3.92

Name the recorded growth for Cc1ccc(N(CC(=O)Nc2ccc(S(=O)(=O)NC3CCN(C)CC3)cc2)S(=O)(=O)c2ccc(Cl)cc2)cc1 .
83.3

Name the recorded growth for COc1ccc(OCC(CO)N2CCN(c3ccccc3)CC2)cc1 (stereo unspecified) .
86.4

Name the recorded growth for NC(=O)NCC1CCCCC1 .
92.9

Name the recorded growth for Cc1cc2nc3c4cc(Cl)ccc4n(CCN(C)C)c3nc2cc1C .
-45

The reported measurements were obtained from PubChem BioAssay (NCI).
